target: T1, basiliximab fab; assay: BLI; CD25-Fc on anti-hFc biosensor, basiliximab Fab in solution; global 1:1 fit;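 also: biolayer interferometry signals normalized against a reference probe and smoothed with a Savitzky-Golay filter before the global fit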
T1 construct: The assay used a Fab of basiliximab; Chimeric antibody: human IgG1 constant, mouse variable domains
T1 sequence (VH, as listed by the source limits assumed, chain 1 of 2): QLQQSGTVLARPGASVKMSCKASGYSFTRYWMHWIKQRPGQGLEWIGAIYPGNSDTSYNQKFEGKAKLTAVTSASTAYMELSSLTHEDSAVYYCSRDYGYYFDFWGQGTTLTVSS
T1 sequence (VL, as listed by the source limits assumed, chain 2 of 2): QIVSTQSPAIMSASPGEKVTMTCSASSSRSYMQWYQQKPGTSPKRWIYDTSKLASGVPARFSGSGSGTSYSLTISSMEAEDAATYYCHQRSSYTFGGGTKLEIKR
Parameter: kon. Scope: all listed entries.

- Binder: "CD25 L42V mutant (CD25-Fc) (Fc fusion, not shown: Fc part of CD25-Fc) ELCDDDPPEIPHATFKAMAYKEGTMLNCECKRGFRRIKSGSVYMLCTGNSSHSSWDNQCQCTSSATRNTTKQVTPQPEEQKERKTTEMQSPMQPVDQASLPGHCREPPPWENEATERIYHFVVGQMVYYQCVQGYRALHRGPAESVCKMTHGKTRWTQPQLICTGEMETSQFPGEEKPQASPEGRPESETSCLVTTTDFQIQTEMAATMETSIFTTEYQ"
  kon / M⁻¹ s⁻¹: 190000
- Binder: "CD25 L2I mutant (CD25-Fc) (Fc fusion, not shown: Fc part of CD25-Fc) EICDDDPPEIPHATFKAMAYKEGTMLNCECKRGFRRIKSGSLYMLCTGNSSHSSWDNQCQCTSSATRNTTKQVTPQPEEQKERKTTEMQSPMQPVDQASLPGHCREPPPWENEATERIYHFVVGQMVYYQCVQGYRALHRGPAESVCKMTHGKTRWTQPQLICTGEMETSQFPGEEKPQASPEGRPESETSCLVTTTDFQIQTEMAATMETSIFTTEYQ"
  kon / M⁻¹ s⁻¹: 212000
- Binder: "CD25 L42G mutant (CD25-Fc) (Fc fusion, not shown: Fc part of CD25-Fc) ELCDDDPPEIPHATFKAMAYKEGTMLNCECKRGFRRIKSGSGYMLCTGNSSHSSWDNQCQCTSSATRNTTKQVTPQPEEQKERKTTEMQSPMQPVDQASLPGHCREPPPWENEATERIYHFVVGQMVYYQCVQGYRALHRGPAESVCKMTHGKTRWTQPQLICTGEMETSQFPGEEKPQASPEGRPESETSCLVTTTDFQIQTEMAATMETSIFTTEYQ"
  kon / M⁻¹ s⁻¹: 133000
- Binder: "CD25 T47S mutant (CD25-Fc) (Fc fusion, not shown: Fc part of CD25-Fc) ELCDDDPPEIPHATFKAMAYKEGTMLNCECKRGFRRIKSGSLYMLCSGNSSHSSWDNQCQCTSSATRNTTKQVTPQPEEQKERKTTEMQSPMQPVDQASLPGHCREPPPWENEATERIYHFVVGQMVYYQCVQGYRALHRGPAESVCKMTHGKTRWTQPQLICTGEMETSQFPGEEKPQASPEGRPESETSCLVTTTDFQIQTEMAATMETSIFTTEYQ"
  kon / M⁻¹ s⁻¹: "1.31e+06"
- Binder: "CD25 T47D mutant (CD25-Fc) (Fc fusion, not shown: Fc part of CD25-Fc) ELCDDDPPEIPHATFKAMAYKEGTMLNCECKRGFRRIKSGSLYMLCDGNSSHSSWDNQCQCTSSATRNTTKQVTPQPEEQKERKTTEMQSPMQPVDQASLPGHCREPPPWENEATERIYHFVVGQMVYYQCVQGYRALHRGPAESVCKMTHGKTRWTQPQLICTGEMETSQFPGEEKPQASPEGRPESETSCLVTTTDFQIQTEMAATMETSIFTTEYQ"
  kon / M⁻¹ s⁻¹: "2.15e+06"
